Target: human JAK1 (a.a. 837-1142) (Homo sapiens)
Property Name: IC50

Prompt: Can you look up IC50 on human JAK1 (a.a. 837-1142) (Homo sapiens) for N#CCC(C1CCN(c2cccc(Cl)n2)C1)n1cc(-c2ncnc3[nH]ccc23)cn1 (single isomer, unassigned) ?
Completion: < 10 nM

====

Biological target: PI3Kγ (p110γ) Recombinant Human Protein (Homo sapiens (Human))
Experiment: PI3K-γ scintillation proximity assay
Conditions: 2 μM ATP, 20 μM PIP2
Structures can show the parent of a compound that is named as a salt.
// reported IC50 for each item listed

Below, each entry is followed by its recorded IC50 result.
>  <Molecule>
CNC(=O)C1CCN(c2c(C(C)NC(=O)c3c(N)nn4cccnc34)cc(Cl)c3cn[nH]c23)C1 (single isomer, unassigned) [Example 103A, trifluoroacetate]

>  <IC50>
< 100 nM

$$$$
>  <Molecule>
CC(NC(=O)c1c(N)nn2cccnc12)c1cc(Cl)c2cncn2c1N1CCC(F)CC1 (stereo not shown) [Example 66, bistrifluoroacetate]

>  <IC50>
< 100 nM

$$$$
>  <Molecule>
Nc1nn2cccnc2c1C(=O)NCc1cc(Cl)c2cncn2c1N1CCS(=O)(=O)CC1 [Example 166, trifluoroacetate salt]

>  <IC50>
< 100 nM

$$$$

Prompt: # value lookup — system PI3Kγ (p110γ) Recombinant Human Protein (Homo sapiens (Human)), readout IC50, item CC(NC(=O)c1c(N)nn2cccnc12)c1cc(Cl)c2cncn2c1N1CCCC[C@@H]1C (stereo partly shown) [Example 72B, bistrifluoroacetate]
Completion: < 100 nM

====

Molecular target: PI3Kγ (p110γ) Recombinant Human Protein (Homo sapiens (Human), UniProt P48736)
Sequence (P48736 whole entry): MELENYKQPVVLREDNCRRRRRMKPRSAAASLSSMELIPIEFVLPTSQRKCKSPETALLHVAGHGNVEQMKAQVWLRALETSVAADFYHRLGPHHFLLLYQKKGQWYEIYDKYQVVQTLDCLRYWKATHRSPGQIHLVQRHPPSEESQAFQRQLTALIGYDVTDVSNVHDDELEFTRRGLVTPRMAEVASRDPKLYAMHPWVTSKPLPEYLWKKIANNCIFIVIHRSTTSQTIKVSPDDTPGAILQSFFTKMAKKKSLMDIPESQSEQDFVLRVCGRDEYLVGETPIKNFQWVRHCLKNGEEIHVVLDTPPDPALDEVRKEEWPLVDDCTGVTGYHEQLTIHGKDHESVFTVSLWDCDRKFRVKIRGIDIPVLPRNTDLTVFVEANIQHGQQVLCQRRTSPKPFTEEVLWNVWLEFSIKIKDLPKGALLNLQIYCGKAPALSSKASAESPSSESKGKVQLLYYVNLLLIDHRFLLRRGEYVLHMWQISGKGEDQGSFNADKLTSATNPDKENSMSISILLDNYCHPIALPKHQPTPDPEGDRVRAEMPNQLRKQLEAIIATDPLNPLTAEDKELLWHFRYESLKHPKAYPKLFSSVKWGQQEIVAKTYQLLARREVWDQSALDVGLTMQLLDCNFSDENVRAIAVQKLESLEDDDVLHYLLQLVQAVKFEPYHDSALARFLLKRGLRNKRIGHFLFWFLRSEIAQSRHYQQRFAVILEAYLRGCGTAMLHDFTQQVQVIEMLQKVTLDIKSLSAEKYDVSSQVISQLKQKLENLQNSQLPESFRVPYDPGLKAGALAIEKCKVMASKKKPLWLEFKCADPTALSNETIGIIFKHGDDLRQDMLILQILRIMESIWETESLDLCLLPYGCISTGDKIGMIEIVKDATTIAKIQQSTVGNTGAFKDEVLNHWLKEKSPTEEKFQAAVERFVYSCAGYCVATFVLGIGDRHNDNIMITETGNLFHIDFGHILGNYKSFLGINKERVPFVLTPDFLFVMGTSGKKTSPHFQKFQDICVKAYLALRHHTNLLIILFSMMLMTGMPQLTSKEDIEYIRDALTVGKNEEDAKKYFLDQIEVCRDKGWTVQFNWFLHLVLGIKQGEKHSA
Assay: PI3K-γ scintillation proximity assay
Details: 2 μM ATP, 20 μM PIP2
pIC50: −log10 of the molar value. Counter-ions that a name gives are not always drawn.
Entries annotated with measured pIC50

Observe how each entry below is paired with its result.
>  <Compound>
CC(NC(=O)c1c(N)nn2cccnc12)c1cc(Cl)c2cncn2c1N1CCCC1(C)C (stereo not drawn) [Example 70, bistrifluoroacetate]

>  <Target Entity>
PI3Kγ (p110γ) Recombinant Human Protein (Homo sapiens (Human), UniProt P48736)

>  <Test Value>
> 7.00

$$$$
>  <Compound>
CC(NC(=O)c1c(N)nn2cccnc12)c1cc(Cl)c2c(C#N)n[nH]c2c1-c1ccccc1 (stereo not drawn) [Example 55, trifluoroacetate]

>  <Target Entity>
PI3Kγ (p110γ) Recombinant Human Protein (Homo sapiens (Human), UniProt P48736)

>  <Test Value>
> 7.00

$$$$

API: the following record is the query input.
Prompt: Please look up its pIC50: Cc1ncc2c(Cl)cc(C(C)NC(=O)c3c(N)nn4cccnc34)c(-c3cccnc3)n12 (racemic) [Example 120, trifluoroacetate salt]
Completion: > 7.00

====

System: Phosphorylated Ribosomal Protein S6 (RPS6) in THP-1 cells
Assay: THP-1 RPS6 ELISA assay
Assay type: cell-based, human
Conditions: Homo sapiens, THP-1, THP-1 cells, 10 nM MCP-1; read-out: PI3Kγ_THP1_RPS6_ELISA IC50
Structures can show the parent of a compound that is named as a salt.
Property Name: IC50

>  <Molecule>
CC(NC(=O)c1c(N)nn2cccnc12)c1cc(Cl)c2cncn2c1-c1cncc(S(C)(=O)=O)c1 (racemic) [Example 131, trifluoroacetate salt]

>  <Property Name>
IC50

>  <Test Value>
< 0.5 µM

$$$$
>  <Molecule>
Cc1ncc2c(Cl)cc(C(C)NC(=O)c3c(N)nn4cccnc34)c(-c3cn[nH]c3)n12 (racemic) [Example 118, trifluoroacetate salt]

>  <Property Name>
IC50

>  <Test Value>
< 0.5 µM

$$$$
>  <Molecule>
CC(NC(=O)c1c(N)nn2cccnc12)c1cc(Cl)c2cncn2c1N1CCCC1(C)C (stereo not shown) [Example 70, bistrifluoroacetate]

>  <Property Name>
IC50

>  <Test Value>
< 0.5 µM

$$$$
>  <Molecule>
CC(NC(=O)c1c(N)nn2cccnc12)c1cc(Cl)c2c(Cl)cnn2c1N1CCS(=O)(=O)C(C)C1 (stereo not shown) [Example 112A, trifluoroacetate]

>  <Property Name>
IC50

>  <Test Value>
< 0.5 µM

$$$$
>  <Molecule>
CC(NC(=O)c1c(N)nn2cccnc12)c1cc(Cl)c2c(Cl)cnn2c1N1CCCS(=O)(=O)CC1 (stereo not shown) [Example 114, trifluoroacetate]

>  <Property Name>
IC50

>  <Test Value>
< 0.5 µM

$$$$

Prompt: Item CC(NC(=O)c1c(N)nn2cccnc12)c1cc(Cl)c2cncn2c1-c1ccc(S(C)(=O)=O)cc1 (racemic) [Example 136, trifluoroacetate salt] has what recorded IC50?
Completion: > 1 µM

Prompt: Item under review: C[C@H](NC(=O)c1c(N)nn2cccnc12)c1cc(Cl)c2c(F)cnn2c1N1CCS(=O)(=O)CC1 [Example 58, trifluoroacetate] . Reported IC50?
Completion: < 0.5 µM

Prompt: Request the reported IC50 associated with CNC(=O)C1CCN(c2c(C(C)NC(=O)c3c(N)nn4cccnc34)cc(Cl)c3cn[nH]c23)CC1 (stereo not shown) [Example 107, trifluoroacetate]
Completion: < 0.5 µM

Prompt: Returns the measured IC50 for the input molecule. Input: CC(NC(=O)c1c(N)nn2cccnc12)c1cc(Cl)c2ccnn2c1N1CCS(=O)(=O)C(C)(C)C1 (stereo not shown) [Example 111, trifluoroacetate]
Completion: < 0.5 µM

====

System: Phosphorylated Ribosomal Protein S6 (RPS6) in THP-1 cells
Assay: THP-1 RPS6 ELISA assay
Assay type: cell-based, human
Conditions: Homo sapiens, THP-1, THP-1 cells, 10 nM MCP-1; read-out: PI3Kγ_THP1_RPS6_ELISA IC50
pIC50: −log10 of the molar value. Structures can show the parent of a compound that is named as a salt.
Form field: pIC50 (one value per entry).

Completed entries (count: 5):
>  <Compound>
CC(NC(=O)c1c(N)nn2cccnc12)c1cc(Cl)c2cncn2c1N1CCS(=O)(=O)CC1C (single isomer, unassigned) [Example 38A, trifluoroacetate salt]

>  <Target Entity>
Phosphorylated Ribosomal Protein S6 (RPS6) in THP-1 cells

>  <pIC50>
> 6.30

$$$$
>  <Compound>
C[C@H](NC(=O)c1c(N)nn2cccnc12)c1cc(Cl)c2cncn2c1N1CCS(=O)(=O)[C@H](C)C1 [Example 31A, trifluoroacetate salt]

>  <Target Entity>
Phosphorylated Ribosomal Protein S6 (RPS6) in THP-1 cells

>  <pIC50>
> 6.30

$$$$
>  <Compound>
CC(NC(=O)c1c(N)nn2cccnc12)c1cc(Cl)c2cncn2c1N1C[C@H](O)C[C@H](C#N)C1 (stereo partly drawn) [Example 157, trifluoroacetate salt]

>  <Target Entity>
Phosphorylated Ribosomal Protein S6 (RPS6) in THP-1 cells

>  <pIC50>
> 6.00

$$$$
>  <Compound>
CCOc1c(C(C)NC(=O)c2c(N)nn3ccc(-c4cccnc4)nc23)cc(Cl)c2cn[nH]c12 (stereo not drawn) [Example 50, bis(trifluoroacetate)]

>  <Target Entity>
Phosphorylated Ribosomal Protein S6 (RPS6) in THP-1 cells

>  <pIC50>
> 6.30

$$$$
>  <Compound>
CCOc1c(C(C)NC(=O)c2c(N)nn3ccc(-c4cncc(OC)c4)nc23)cc(Cl)c2c(Cl)n[nH]c12 (stereo not drawn) [Example 43, trifluoroacetate salt]

>  <Target Entity>
Phosphorylated Ribosomal Protein S6 (RPS6) in THP-1 cells

>  <pIC50>
> 6.30

$$$$

Consider the record given below.
Prompt: Return reported pIC50; argument: CC(NC(=O)c1c(N)nn2cccnc12)c1cc(Cl)c2cncn2c1N1CCC(F)(F)CC1 (stereo not drawn) [Example 65, bistrifluoroacetate]
Completion: > 6.30

====

Molecular target: PI3Kδ (p110δ/p85α) Recombinant Human Protein (Homo sapiens (Human), UniProt O00329)
Sequence (O00329 whole entry): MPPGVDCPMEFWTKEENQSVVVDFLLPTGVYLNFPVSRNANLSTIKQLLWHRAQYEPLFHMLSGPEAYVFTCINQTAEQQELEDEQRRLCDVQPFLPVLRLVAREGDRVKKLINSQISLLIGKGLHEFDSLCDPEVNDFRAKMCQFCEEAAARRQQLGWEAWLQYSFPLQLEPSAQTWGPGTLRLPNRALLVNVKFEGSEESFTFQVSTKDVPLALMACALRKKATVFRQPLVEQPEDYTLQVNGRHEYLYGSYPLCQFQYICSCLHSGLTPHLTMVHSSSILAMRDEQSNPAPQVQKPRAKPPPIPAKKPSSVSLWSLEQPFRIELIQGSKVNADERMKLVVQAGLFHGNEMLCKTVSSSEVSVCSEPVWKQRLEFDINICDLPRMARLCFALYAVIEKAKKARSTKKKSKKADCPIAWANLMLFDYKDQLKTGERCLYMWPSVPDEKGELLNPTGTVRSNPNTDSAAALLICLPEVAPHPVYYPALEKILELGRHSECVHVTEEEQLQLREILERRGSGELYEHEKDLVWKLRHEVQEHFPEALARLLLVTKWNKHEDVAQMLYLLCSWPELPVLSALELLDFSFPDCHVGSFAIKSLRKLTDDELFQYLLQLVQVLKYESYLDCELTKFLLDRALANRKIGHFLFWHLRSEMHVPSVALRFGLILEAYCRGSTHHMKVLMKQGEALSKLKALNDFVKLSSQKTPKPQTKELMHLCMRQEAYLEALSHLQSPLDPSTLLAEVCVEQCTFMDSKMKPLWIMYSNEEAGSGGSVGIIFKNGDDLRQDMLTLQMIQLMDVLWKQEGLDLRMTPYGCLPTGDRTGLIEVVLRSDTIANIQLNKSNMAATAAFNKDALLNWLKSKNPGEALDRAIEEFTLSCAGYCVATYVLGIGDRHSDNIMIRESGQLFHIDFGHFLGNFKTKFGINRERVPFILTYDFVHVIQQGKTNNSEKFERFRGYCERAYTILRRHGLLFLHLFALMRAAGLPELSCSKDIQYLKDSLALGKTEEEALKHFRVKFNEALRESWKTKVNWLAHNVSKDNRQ
Sequence (P27986 whole entry partner): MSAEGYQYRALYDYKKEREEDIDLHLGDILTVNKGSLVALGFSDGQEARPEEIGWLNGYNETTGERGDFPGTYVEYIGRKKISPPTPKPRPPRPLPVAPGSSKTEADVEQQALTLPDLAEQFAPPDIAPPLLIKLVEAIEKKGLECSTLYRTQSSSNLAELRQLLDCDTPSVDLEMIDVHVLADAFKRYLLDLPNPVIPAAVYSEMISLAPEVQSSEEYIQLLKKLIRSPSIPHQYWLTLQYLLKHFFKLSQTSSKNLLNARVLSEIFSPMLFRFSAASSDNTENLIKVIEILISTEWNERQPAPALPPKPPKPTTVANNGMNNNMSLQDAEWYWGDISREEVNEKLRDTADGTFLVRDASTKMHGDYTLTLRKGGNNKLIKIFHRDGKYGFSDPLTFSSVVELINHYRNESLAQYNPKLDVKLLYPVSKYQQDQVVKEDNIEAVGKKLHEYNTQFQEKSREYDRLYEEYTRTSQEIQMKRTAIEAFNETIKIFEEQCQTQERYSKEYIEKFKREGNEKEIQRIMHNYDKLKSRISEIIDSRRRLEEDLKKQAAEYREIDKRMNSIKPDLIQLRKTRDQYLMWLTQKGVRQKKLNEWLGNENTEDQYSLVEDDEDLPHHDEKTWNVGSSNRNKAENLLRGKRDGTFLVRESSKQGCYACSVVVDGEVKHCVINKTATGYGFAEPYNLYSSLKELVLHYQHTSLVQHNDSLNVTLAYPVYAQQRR
Assay: PI3Kδ scintillation proximity assay
Assay type: biochemical
Conditions: 2 μM ATP, 20 μM PIP2
pIC50: −log10 of the molar value. Counter-ions that a name gives are not always drawn.
Property Name: pIC50

>  <Compound>
CC(NC(=O)c1c(N)nn2cccnc12)c1cc(Cl)c2cn[nH]c2c1C1=CCN(C(=O)OCc2ccccc2)CC1 (stereo not drawn) [Example 98, bis(trifluoroacetate)]

>  <Test Value>
> 5.70

$$$$
>  <Compound>
CCOc1c(C(C)NC(=O)c2c(N)nn3ccc(-c4cncc(OC)c4)nc23)cc(Cl)c2c(Cl)n[nH]c12 (stereo not drawn) [Example 43, trifluoroacetate salt]

>  <Test Value>
> 7.00

$$$$
>  <Compound>
CC(NC(=O)c1c(N)nn2cccnc12)c1cc(C2CC2)c2cncn2c1-c1ccccc1 (racemic) [Example 117, trifluoroacetate salt]

>  <Test Value>
> 5.70

$$$$
>  <Compound>
CC(NC(=O)c1c(N)nn2cccnc12)c1cc(Cl)c2cn[nH]c2c1OCC(O)CO (stereo not drawn) [Example 85, trifluoroacetate]

>  <Test Value>
> 7.00

$$$$
>  <Compound>
CC(NC(=O)c1c(N)nn2cccnc12)c1cc(Cl)c2c(C#N)cnn2c1N1CCC[C@H](O)C1 (stereo partly drawn) [Example 61, trifluoroacetate]

>  <Test Value>
> 5.70

$$$$

Prompt: Entry C[C@H](NC(=O)c1c(N)nn2cccnc12)c1cc(Cl)c2cncn2c1N1CCS(=O)(=O)[C@H](C)C1 [Example 31A, trifluoroacetate salt] has what pIC50?
Completion: > 7.00

Prompt: Name the reported pIC50 value associated with the compound CC(NC(=O)c1c(N)nn2cccnc12)c1cc(Cl)c2c(C#N)n[nH]c2c1-c1ccccc1 (stereo not drawn) [Example 55, trifluoroacetate]
Completion: > 5.70

Prompt: pIC50 for CC(NC(=O)c1c(N)nn2cccnc12)c1cc(Cl)c2cncn2c1-c1cncc(C#N)c1 (racemic) [Example 137, trifluoroacetate salt] ?
Completion: > 7.00

Prompt: Which measured pIC50 value corresponds to CCOc1c(C(C)NC(=O)c2c(N)nn3ccc(-c4cccnc4)nc23)cc(Cl)c2cn[nH]c12 (stereo not drawn) [Example 50, bis(trifluoroacetate)] ?
Completion: > 7.00

Prompt: So what does the record say about pIC50 for CCOc1c(C(C)NC(=O)c2c(N)nn3cccnc23)cc(Cl)c2cn[nH]c12 (single isomer, unassigned) [Example 3a, trifluoroacetate] ?
Completion: > 7.00

Prompt: # query: pIC50 of entry CCOc1c(C(C)NC(=O)c2c(N)nn3cccnc23)cc(Cl)c2cn(C(C)C)nc12 (stereo not drawn) [Example 11a, trifluoroacetate]
Completion: ≤ 5.70

Prompt: Query: pIC50; subject: CC1CN(c2c(C(NC(=O)c3c(N)nn4cccnc34)C(F)(F)F)cc(Cl)c3c(C#N)ncn23)CCS1(=O)=O (stereo not drawn) [Example 177, trifluoroacetate salt]
Completion: ≤ 5.70
